Cited source: paper PMC12207250

System: P. falciparum 3D7 (chloroquine-sensitive strain)
ASSAY_DETAILS: In vitro antiplasmodial image-based assay
Format: cell-based, Plasmodium falciparum
CONDITION_SUMMARY: Plasmodium falciparum; P. falciparum 3D7, ring-stage, 72 h; mean of duplicate, n = 1; read-out: Pf 3D7 IC50 ± SD
PROPERTY: IC50 (µM)

Please review the entries below; each comes with its answer.
{"COMPOUND": "CCN(CC)CCCNc1nccn2c(-c3ccc(Cl)cc3)nnc12 [Compound 13]", "UNIT": "µM", "IC50": 11.3}
{"COMPOUND": "CN(C)CCNc1nccn2c(-c3ccc(Cl)cc3)nnc12 [Compound 10]", "UNIT": "µM", "IC50": 23.3}
{"COMPOUND": "Clc1ccc(-c2nnc3cncc(Cl)n23)cc1 [Compound 1]", "UNIT": "µM", "IC50": 12.6}
{"COMPOUND": "CN(C)CCCNc1nccn2c(-c3ccc(Cl)cc3)nnc12 [Compound 12]", "UNIT": "µM", "IC50": 22}

[a] Clc1ccc(-c2nnc3c(NCCN4CCNCC4)nccn23)cc1 [Compound 14]
[b] CCN(CC)CCNc1nccn2c(-c3ccc(Cl)cc3)nnc12 [Compound 11]
Q) Param pair: a , b . Output: the one whose IC50 is numerically greater. Pick one; state its label.
A) b
(b: 22 µM, a: 9.9 µM)
